Settings: pH 2.7
Marks after values point to notes of the source that are not given here.
PROPERTY MEASURED: Log P

>>> measured_result("CCOC(=O)C(C#N)=C(NC(C)c1ncc(C(F)(F)F)cc1Cl)c1cccnc1Cl (mixture of isomers) [Compound 288]")
"3.9^[a]"

Need Log P for each of these compounds.
1. CCOC(=O)C(C#N)=C(NC(C)CC)c1sccc1C(F)(F)F (centres unmarked) [Compound 829]
2. CCOC(=O)C(C#N)=C(NC(CC(C)C)C(=O)OCC)c1cn(C)nc1C(F)F (centres unmarked) [Compound 1129]
3. CCOC(=O)C(C#N)=C(NC(C)CSc1cc(Cl)ccc1Cl)c1cccnc1Cl (centres unmarked) [Compound 1157]

RESULT:
3.83^[a]
3.53^[a]
4.27^[a]

Need Log P for each of these compounds.
1. COC(=O)C(C#N)=C(NC1CCCC1)c1cccnc1Cl [Compound 763]
2. CC(C)C(C)NC(=C(C#N)C(=O)O)c1cccnc1Cl (centres unmarked) [Compound 956]

RESULT:
1: 2.61^[a]; 2: 2.2^[a]

Need Log P for each of these compounds.
1. CCOC(=O)C(C#N)=C(NC(C)c1ccccn1)c1ccnc(Cl)c1Br (racemic) [Compound 1404]
2. CCCC(C)NC(=C(C#N)C(=O)OCC)c1sccc1Br (centres unmarked) [Compound 867]
3. CCOC(=O)C(C#N)=C(NC(COC)COC)c1cn(C)nc1C(F)F [Compound 1341]
4. CCOC(=O)C(C#N)=C(NC(CC(C)C)C(=O)OCC)c1cccnc1Cl (centres unmarked) [Compound 1196]
5. CCOC(=O)C(C#N)=C(NC(C)C1CC1)c1cccnc1C(F)F (racemic) [Compound 899]

RESULT:
3.06^[a]
4.16^[a]
2.42^[a]
3.89^[a]
2.9^[a]

---

Settings: pH 2.3
PROPERTY MEASURED: Log P
Numbers only.

Below, 5 compounds whose answers are already recorded.
>>> measured_result("CCOC(=O)C(C#N)=C(NC1CCCNC1=O)c1cccnc1Cl (racemic) [Compound 239]")
1.67
>>> measured_result("CC(C)C(C)NC(=C(C#N)C(N)=O)c1cccnc1Cl (stereo not shown) [Compound 993]")
1.97
>>> measured_result("CCOC(=O)C(C#N)=C(Nc1ccccc1SC)c1cccnc1Cl [Compound 341]")
3.32
>>> measured_result("CCOC(=O)C(C#N)=C(NC(C)c1nccs1)c1cccnc1OCC (racemic) [Compound 148]")
2.92
>>> measured_result("CCOC(=O)C(C#N)=C(Nc1cc(F)ccc1F)c1cccnc1Cl [Compound 1609]")
2.95

Need Log P for each of these compounds.
1. CCOC(=O)C(C#N)=C(NC(C)C(C)C)c1cccnc1C(C)=O (stereo not shown) [Compound 980]
2. CCOC(=O)C(C#N)=C(NC(C)C(C)C)c1cccnc1C(C)=NO (stereo not shown) [Compound 985]
3. CONC(=O)C(C#N)=C(NC(C)C(C)C)c1cccnc1Cl (stereo not shown) [Compound 960]
4. CCNC(=O)C(C#N)=C(Nc1ccccc1SC)c1cccnc1Cl [Compound 1616]

RESULT:
1. 3.11
2. 2.69
3. 2.31
4. 2.85

Need Log P for each of these compounds.
1. CCOC(=O)C(C#N)=C(Nc1ccccc1F)c1cccnc1Cl [Compound 1590]
2. C=Cc1ncccc1C(NC(C)C(C)C)=C(C#N)C(=O)OCC (stereo not shown) [Compound 976]
3. CC(C)C(C)NC(=C(C#N)C(=O)NCC(F)(F)F)c1cccnc1Cl (stereo not shown) [Compound 992]
4. CCOC(=O)C(C#N)=C(NC(C)C(C)C)c1ccc(Cl)nc1 (stereo not shown) [Compound 1617]

RESULT:
1: 2.87; 2: 3.24; 3: 3.17; 4: 3.39

---

Conditions: pH 2.7
Marks after values point to notes of the source that are not given here.
So I've got a bunch of molecules here, and I need their Log P values.

Below, 5 molecules whose answers are already recorded.
>>> measured_result("CCOC(=O)C(C#N)=C(NC(C)C(C)(C)C)c1sccc1C(F)(F)F (racemic)")
"4.46^[a]"
>>> measured_result("CCOC(=O)C(C#N)=C(NC(C)c1ccccn1)c1cccnc1Cl (mixture of isomers)")
"2.5^[a]"
>>> measured_result("CCCCCC(C)NC(=C(C#N)C(=O)OC)c1sc(C)nc1C(F)(F)F (racemic) [Compound 852]")
"4.41^[a]"
>>> measured_result("CCOC(=O)C(C#N)=C(NC(C)C(N)=O)c1conc1C (centres unmarked)")
"1.41^[a]"
>>> measured_result("CCOC(=O)C(C#N)=C(Nc1ccccc1SCC(F)(F)F)c1cc(C)oc1C")
"4.3^[a]"

Need Log P for each of these molecules.
1. CCNC(=O)C(C)NC(=C(C#N)C(=O)OCC)c1cn(C)nc1C(F)F (racemic)
2. CCOC(=O)C(C#N)=C(NC(C)C)c1cccnc1Cl
3. CCOC(=O)C(C#N)=C(NC(C)c1ccccn1)c1cn(C)nc1C (centres unmarked)
4. CCOC(=O)C(C#N)=C(NC(C)C1(Cl)CC1)c1sccc1Br (centres unmarked)

RESULT:
1: 1.88^[a]; 2: 2.66; 3: 1.99^[a]; 4: 3.94^[a]

Need Log P for each of these molecules.
1. CCOC(=O)C(C#N)=C(NC1(c2c(F)cccc2F)CC1)c1cn(C)cc1C(F)(F)F
2. CCOC(=O)C(C#N)=C(NCc1ccccc1SC)c1cn(C)nc1C(F)F
3. CCOC(=O)C(C#N)=C(NC1(COc2ccccc2)CC1)c1cccnc1Cl
4. CCOC(=O)C(C#N)=C(NC(C)c1ccc(C(F)(F)F)cn1)c1cccnc1Cl (mixture of isomers)
5. CCOC(=O)C(C#N)=C(NC1CCC1)c1cc(Cl)cc(Cl)n1

RESULT:
1: 3.85^[a]; 2: 3.17^[a]; 3: 3.6^[a]; 4: 3.5^[a]; 5: 3.79^[a]

Need Log P for each of these molecules.
1. CCOC(=O)C(C#N)=C(NC(C)(C)C#Cc1ccc(C)cc1)c1sccc1Br
2. COC(=O)C(C#N)=C(NC(C)c1ccccc1C)c1cccnc1Cl (centres unmarked)
3. CCOCC(NC(=C(C#N)C(=O)OCC)c1cccnc1Cl)C(C)C (centres unmarked)

RESULT:
1. 5.05^[a]
2. 3.15^[a]
3. 3.69^[a]

---

So I've got a bunch of molecules here, and I need their Log P values.
Details: pH 2.7
Marks after values point to notes of the source that are not given here.

Below, 8 molecules whose answers are already recorded.
>>> measured_result("CCOC(=O)C(C#N)=C(NC(C)C(=O)Nc1ccc2ccccc2c1)c1cccnc1Cl (stereo not shown)")
"3.51^[a]"
>>> measured_result("CCOC(=O)C(C#N)=C(NC(C)C1CC1)c1ncc(Cl)cc1Cl (stereo not shown)")
"3.8^[a]"
>>> measured_result("CCOC(=O)C(C#N)=C(NCc1ccccc1SC)c1cccnc1Cl")
"3.37^[a]"
>>> measured_result("CCOC(=O)C(C#N)=C(NC(C)C(C)C)c1scnc1Cl (stereo not shown)")
"3.46^[a]"
>>> measured_result("CCOC(=O)C(C#N)=C(NC(C)c1c(Cl)cccc1Cl)c1cn(C)nc1C(Cl)Cl (stereo not shown)")
"3.94^[a]"
>>> measured_result("CCOC(=O)C(C#N)=C(NC(C)CCc1ccccc1)c1cn(C)nc1C(F)F (mixture of isomers)")
"3.62^[a]"
>>> measured_result("CCOCC(C)NC(=C(C#N)C(=O)OC)c1cccnc1Cl (stereo not shown)")
"2.42^[a]"
>>> measured_result("CCCC(CC)NC(=C(C#N)C(=O)OCC)c1cccnc1Cl (stereo not shown)")
"3.8^[a]"

Need Log P for each of these molecules.
1. CCOC(=O)C(C#N)=C(NC(C)c1ccccn1)c1scnc1Cl (stereo not shown)
2. CCOC(=O)C(C#N)=C(NC(c1ccc(Cl)cc1)C(F)(F)F)c1cn(C)nc1C(F)F (stereo not shown)

RESULT:
1. 2.59^[a]
2. 4.01^[a]

Need Log P for each of these molecules.
1. CCOC(=O)C(C#N)=C(NC(C)C(C)C)c1c(C(F)F)nn(C)c1Cl (stereo not shown)
2. CCOC(=O)C(C#N)=C(NC(C)Cc1cc2ccccc2[nH]1)c1c(C)nn(C)c1Cl (stereo not shown)
3. CCOC(=O)C(C#N)=C(NC(C#N)c1ccc(Cl)cc1Cl)c1cccnc1Cl (racemic)

RESULT:
["3.63^[a]", "3.24^[a]", "3.83^[a]"]

Need Log P for each of these molecules.
1. COC(=O)C(C#N)=C(NC(C)c1nc(C)c(C)s1)c1sc(C)nc1C(F)(F)F (racemic)
2. CCCC(C)NC(=C(C#N)C(=O)OCC)c1cn(C)nc1C(F)F (stereo not shown)
3. CCOC(=O)C(C#N)=C(NC(C)(C)C(=O)OC)c1sccc1C(F)(F)F
4. CCOC(=O)C(C#N)=C(NC(C)C1CC1)c1cccnc1Cl (stereo not shown) [Compound 910]
5. CCOC(=O)C(C#N)=C(NC(C)c1ccc(Cl)cc1)c1nsc(Cl)c1Cl (stereo not shown)
6. CCOC(=O)C(C#N)=C(NC1CCC1)c1ccncc1F

RESULT:
["3.46^[a]", "3.19^[a]", "3.37^[a]", "3.1^[a]", "4.65^[a]", "2.66^[a]"]

Need Log P for each of these molecules.
1. CCOC(=O)C(C#N)=C(NC(C)COc1c(C)cccc1C)c1cccnc1Cl (stereo not shown)
2. CCOC(=O)C(C#N)=C(NC(C)c1ccc(Cl)cc1)c1cn(C)nc1C(F)F (stereo not shown)

RESULT:
1: 4.26^[a]; 2: 3.6^[a]
